Target or system UniProt:P50406; metric pKi; compiled from varied reports.
pKi: −log10 of the molar value.
Use 8 as the dividing line for pKi, with the line itself on the true side and lower values as false.

input: Quick check: does NCCn1c(=O)n(S(=O)(=O)c2ccccc2)c2cccnc21 have pKi greater than or equal to 8?
output: false

input: Quick check: does O=S(=O)(c1ccc(Br)cc1)n1cc(C(F)F)c2cc(N3CCNCC3)ccc21 have pKi greater than or equal to 8?
output: false

input: Quick check: does O=C(O)Cc1cn(S(=O)(=O)c2c(Cl)nc3sccn23)c2ccccc12 have pKi greater than or equal to 8?
output: false

input: Quick check: does Cc1nc(N)sc1S(=O)(=O)n1cc(C2CCN(Cc3ccccc3)C2)c2ccccc21 (centres unmarked) have pKi greater than or equal to 8?
output: true

input: Quick check: does CN1CCC(c2cn(S(=O)(=O)c3ccccc3I)c3ccccc23)C1 (centres unmarked) have pKi greater than or equal to 8?
output: true

input: Quick check: does COc1ccc(S(=O)(=O)n2cc(C3CCN(C)C3)c3ccccc32)cc1OC (centres unmarked) have pKi greater than or equal to 8?
output: true

input: Quick check: does C[C@@H](NCC1CCc2ccc(NS(=O)(=O)c3c(Cl)nc4sccn34)cc2O1)c1ccccc1 (some centres unmarked) have pKi greater than or equal to 8?
output: true

input: Quick check: does O=S(=O)(Nc1ccc2c(c1)OC(CN1CCOCC1)CC2)c1ccccc1 (centres unmarked) have pKi greater than or equal to 8?
output: false

input: Quick check: does CN(C)C1CCc2ccc3c(ccn3S(=O)(=O)c3ccccc3Cl)c2C1 (centres unmarked) have pKi greater than or equal to 8?
output: true

input: Quick check: does Cc1noc(C)c1S(=O)(=O)n1c(=O)n(C2=CCNCC2)c2ccccc21 have pKi greater than or equal to 8?
output: false

input: Quick check: does c1ccc(CC2CCN(CCCCCCn3c4ccccc4c4ccccc43)CC2)cc1 have pKi greater than or equal to 8?
output: false

input: Quick check: does O=c1n(C2CCNCC2)c2ccccc2n1S(=O)(=O)c1ccc(Cl)s1 have pKi greater than or equal to 8?
output: false

input: Quick check: does O=S(=O)(c1cccc(F)c1)n1cc(C(F)F)c2c(N3CCNCC3)cccc21 have pKi greater than or equal to 8?
output: true

input: Quick check: does O=S(=O)(c1ccccc1)n1cc(C(F)F)c2c(NC3CCNCC3)cccc21 have pKi greater than or equal to 8?
output: false
